# pIC50 per record follows
# tested_system: TLR9 (Homo sapiens, UniProt Q9NR96)
# Construct: Fresh blood was collected from normal human donors; endogenous in cells; host or cells: human PBMCs from fresh donor blood
# Sequence (Q9NR96 26-1032): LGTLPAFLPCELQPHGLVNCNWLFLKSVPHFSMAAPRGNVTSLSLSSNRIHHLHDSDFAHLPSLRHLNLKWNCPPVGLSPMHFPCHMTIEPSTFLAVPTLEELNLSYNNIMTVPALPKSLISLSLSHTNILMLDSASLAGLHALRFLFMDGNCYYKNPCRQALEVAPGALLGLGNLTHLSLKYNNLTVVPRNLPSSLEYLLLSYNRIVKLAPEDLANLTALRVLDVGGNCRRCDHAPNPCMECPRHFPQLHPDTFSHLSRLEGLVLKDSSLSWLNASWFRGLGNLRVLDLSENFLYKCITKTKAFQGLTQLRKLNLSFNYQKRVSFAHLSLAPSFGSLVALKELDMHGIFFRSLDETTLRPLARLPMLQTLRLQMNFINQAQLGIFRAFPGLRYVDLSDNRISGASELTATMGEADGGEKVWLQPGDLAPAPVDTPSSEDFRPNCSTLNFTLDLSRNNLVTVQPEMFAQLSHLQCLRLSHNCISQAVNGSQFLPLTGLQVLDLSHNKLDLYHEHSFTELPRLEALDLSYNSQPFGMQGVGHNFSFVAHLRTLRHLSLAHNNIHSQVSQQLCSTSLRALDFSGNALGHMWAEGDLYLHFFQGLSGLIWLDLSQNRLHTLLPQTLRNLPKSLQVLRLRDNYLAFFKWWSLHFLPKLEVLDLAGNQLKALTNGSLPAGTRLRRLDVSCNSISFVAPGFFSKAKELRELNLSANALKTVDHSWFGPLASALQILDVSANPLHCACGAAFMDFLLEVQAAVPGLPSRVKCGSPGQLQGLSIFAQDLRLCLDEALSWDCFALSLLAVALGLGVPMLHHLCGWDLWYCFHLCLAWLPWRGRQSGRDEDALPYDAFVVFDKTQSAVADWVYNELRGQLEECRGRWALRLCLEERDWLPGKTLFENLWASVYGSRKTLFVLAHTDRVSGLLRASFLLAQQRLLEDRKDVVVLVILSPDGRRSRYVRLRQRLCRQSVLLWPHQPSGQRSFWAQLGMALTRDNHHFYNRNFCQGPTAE
# test_description: huPBMC TLR9 Antagonist IFNα Assay
# Format: cell-based
# condition: human PBMCs stimulated with ODN2216 0.3 μM, 14-16 hrs; IFNα2b AlphaLISA read-out
# Text: Compounds were generally serially diluted (1/3) in DMSO and plated on sterile 384 well tissue culture plates and stored until ready for use. Each ten-point dilution was typically plated in triplicate in parallel rows. Fresh blood was collected from normal human donors underwritten informed consent in heparinized syringes on the morning of the assay. […] Viable PBMCs were counted on a hemacytometer and kept on ice until ready for plating. […]
pIC50: −log10 of the molar value.

Cc1cc(N2CCc3c(c(C)nn3CC34CCC(O)(CC3)CC4)C2)c2cnn(C)c2n1 [compound 46]    < 5.00
Cc1nc(N2CCc3c(c(C)nn3CC34CCC(N5CCCCC5)(CC3)CC4)C2)c2c(n1)c(C)nn2C [compound 38]    < 5.00

// next entry
# query: pIC50 of entry Cc1nc(N2CCc3c(c(C)nn3CC34CCC(N5CCCCC5)(CC3)CC4)C2)c2cnn(C)c2n1 [compound 39]
< 5.00

----------
# tested_system: TLR7 (Homo sapiens, UniProt Q9NYK1)
# Construct: Fresh blood was collected from normal human donors; endogenous in cells
# Sequence (Q9NYK1 27-1049): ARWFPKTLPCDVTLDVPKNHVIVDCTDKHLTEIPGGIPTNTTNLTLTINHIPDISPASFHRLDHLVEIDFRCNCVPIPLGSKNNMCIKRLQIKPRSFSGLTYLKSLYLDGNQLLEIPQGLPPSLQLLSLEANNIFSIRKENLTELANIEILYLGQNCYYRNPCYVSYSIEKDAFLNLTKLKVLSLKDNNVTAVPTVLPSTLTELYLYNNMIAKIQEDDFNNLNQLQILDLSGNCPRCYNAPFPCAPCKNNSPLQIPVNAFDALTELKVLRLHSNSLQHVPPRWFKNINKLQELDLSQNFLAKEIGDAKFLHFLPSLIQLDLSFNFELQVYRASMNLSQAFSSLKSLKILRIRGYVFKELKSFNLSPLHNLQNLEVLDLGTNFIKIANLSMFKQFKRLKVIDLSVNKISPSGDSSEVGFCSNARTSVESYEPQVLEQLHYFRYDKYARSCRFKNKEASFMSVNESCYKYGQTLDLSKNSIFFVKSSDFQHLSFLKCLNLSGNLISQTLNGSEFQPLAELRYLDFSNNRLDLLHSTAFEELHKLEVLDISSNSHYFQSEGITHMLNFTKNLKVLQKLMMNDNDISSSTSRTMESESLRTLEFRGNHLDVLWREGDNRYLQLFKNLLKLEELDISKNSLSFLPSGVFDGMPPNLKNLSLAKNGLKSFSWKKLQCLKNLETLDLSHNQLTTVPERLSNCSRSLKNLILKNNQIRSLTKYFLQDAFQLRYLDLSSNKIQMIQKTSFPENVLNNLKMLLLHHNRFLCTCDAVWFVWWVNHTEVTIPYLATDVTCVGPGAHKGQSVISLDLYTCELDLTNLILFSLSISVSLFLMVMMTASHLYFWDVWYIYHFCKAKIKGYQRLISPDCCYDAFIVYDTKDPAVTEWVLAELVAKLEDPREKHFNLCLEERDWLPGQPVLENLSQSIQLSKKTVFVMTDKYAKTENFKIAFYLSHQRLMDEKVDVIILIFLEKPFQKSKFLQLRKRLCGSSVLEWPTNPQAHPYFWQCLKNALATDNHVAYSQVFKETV
# test_description: huPBMC TLR7 Antagonist IFNα Assay
# condition: human PBMCs stimulated with ssRNA40 10 μg/mL (DOTAP), 14-16 hrs; IFNα2b AlphaLISA read-out
endpoint_label: pIC50
By convention, pIC50 is the negative base-10 log of a molar concentration.

Cc1cc(N2CCc3c(c(C)nn3CC34CCC(N(C)C5COC5)(CC3)CC4)C2)c2cnn(C)c2n1    8.00

# query: pIC50 of entry `Cc1cc(N2CCc3c(c(C)nn3CC34CCC(N5CC[C@H](O)C5)(CC3)CC4)C2)c2cnn(C)c2n1`
7.96

# query: pIC50 of entry `Cc1nc(N2CCc3c(c(C)nn3CC34CCC(NCC5(CO)COC5)(CC3)CC4)C2)c2c(n1)c(C)nn2C`
7.89

# query: pIC50 of entry `Cc1cc(N2CCc3c(c(C)nn3CC34CCC(NC(=O)CN5CC(F)C5)(CC3)CC4)C2)c2cnn(C)c2n1`
7.92

# query: pIC50 of entry `Cc1cc(N2CCc3c(c(C)nn3CC34CCC(NC(=O)CN5CC(O)C5)(CC3)CC4)C2)c2cnn(C)c2n1`
8.22

# query: pIC50 of entry `Cc1cc(N2CCc3c(c(C)nn3CC34CCC(N5CCOC[C@@H]5C)(CC3)CC4)C2)c2cnn(C)c2n1`
8.22
